- assayTarget: human α-thrombin (Homo sapiens, UniProt P00734)
- experimentNotes: Sub-library screen for active and permeable cyclic peptides (PAMPA plus thrombin inhibition)
- Format: biochemical
- conditionDescription: donor sample diluted to theoretical equilibrium (1 μM in assay); crude; slopes normalized to DMSO
metricName: Residual thrombin activity: Equilibrated sample
Give only the figure.

Please review the entries below; each comes with its answer.
Entry under test: COc1ccc(C[C@@H]2NC(=O)[C@@H](NC(=O)c3ccc(Cl)s3)CCCSCCS(=O)(=O)CCSCCNC(=O)C[C@H]3CCCN3C2=O)cc1 [C3-X33-L2] . Its Residual thrombin activity: Equilibrated sample was 97.1

Per the record, O=C1C[C@H]2CCCN2C(=O)[C@H](Cc2ccc(C(F)(F)F)cc2)NC(=O)[C@@H](NC(=O)c2ccc(Cl)s2)CSCc2cccc(n2)CSCCN1 [C1-X36-L1] has Residual thrombin activity: Equilibrated sample of 98.9

// field: Residual thrombin activity: Equilibrated sample; key: O=C1C[C@H]2CCCN2C(=O)[C@@H](Cc2ccccc2)NC(=O)[C@@H](NC(=O)c2ccc(Cl)s2)CSC/C=C/CSCCN1 [C1-X31-L4] ; value = 93.6

Entry CN1C(=O)[C@@H](NC(=O)c2ccc(Cl)s2)CCSCc2ccc(cc2)CSCCNC(=O)C[C@H]2CCCN2C(=O)[C@@H]1Cc1ccccc1 [C2-X32-L3] — recorded Residual thrombin activity: Equilibrated sample = 96.9

---
Value of measured Residual thrombin activity: Equilibrated sample for the entry O=C1C[C@H]2CCCN2C(=O)[C@H](Cc2ccc(C(F)(F)F)cc2)NC(=O)[C@@H](NC(=O)c2ccc(Cl)s2)CCSC/C=C/CSCCN1 [C2-X36-L4] : 101.3

// field: Residual thrombin activity: Equilibrated sample; key: O=C1C[C@H]2CCCN2C(=O)[C@@H](Cc2ccccc2)NC(=O)[C@@H](NC(=O)c2ccc(Cl)s2)CCSCc2cccc(n2)CSCCN1 [C2-X31-L1] ; value = 90.7

COc1ccc(C[C@@H]2NC(=O)[C@@H](NC(=O)c3ccc(Cl)s3)CCCSCC(=O)CSCCNC(=O)C[C@H]3CCCN3C2=O)cc1 [C3-X33-L7] has a reported Residual thrombin activity: Equilibrated sample of 99.9
